All values here come from the supplement of paper PMC7125110.

B1: glmS ribozyme (parent)
chain: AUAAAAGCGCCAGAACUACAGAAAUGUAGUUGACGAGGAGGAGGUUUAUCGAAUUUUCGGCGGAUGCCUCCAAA

Variants of: B1
Test summary: self-cleavage kobs at 10000 uM GlcN6P; higher = faster cleavage; RNA array
Condition info: with glucosamine-6-phosphate
Fewer inactive variants are shown than the library holds.
Readout type: self-cleavage kobs at 10000 uM GlcN6P (s⁻¹)
The response must be a number in s⁻¹ with no trailing unit.

C34U C50G A53U C68G :: 0.000111
G13C G29A :: 0.000106
A15C :: 0.00932
U47C C71U :: 0.00312
C11U G40U C70U :: 9.73e-05

Next:
Look at this variant and give its reported self-cleavage kobs at 10000 uM GlcN6P. G13U C71G
5.01e-05
